# measured_target: recombinant human MAO-B (monoamine oxidase-B) (Homo sapiens)
# Construct: purchased Sigma-Aldrich
# Sequence (P27338 whole entry): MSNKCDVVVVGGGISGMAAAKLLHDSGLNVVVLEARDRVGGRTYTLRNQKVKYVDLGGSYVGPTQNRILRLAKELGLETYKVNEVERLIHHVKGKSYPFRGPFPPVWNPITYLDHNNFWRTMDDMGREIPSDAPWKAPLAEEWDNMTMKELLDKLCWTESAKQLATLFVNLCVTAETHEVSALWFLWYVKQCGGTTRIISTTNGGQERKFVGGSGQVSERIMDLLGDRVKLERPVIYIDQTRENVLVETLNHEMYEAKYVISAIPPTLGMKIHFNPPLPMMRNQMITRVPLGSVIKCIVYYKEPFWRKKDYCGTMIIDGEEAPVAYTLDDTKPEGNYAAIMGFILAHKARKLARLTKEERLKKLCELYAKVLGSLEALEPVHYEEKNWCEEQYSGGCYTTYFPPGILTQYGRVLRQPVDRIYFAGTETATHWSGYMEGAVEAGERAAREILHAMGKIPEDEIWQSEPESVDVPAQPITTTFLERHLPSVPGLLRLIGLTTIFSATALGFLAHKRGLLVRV
# assay_remarks: Activity on recombinant human MAO-B, Amplex Red method, 1 mM benzylamine substrate
# Type: biochemical
# measurement_setup: 1 mM benzylamine substrate, read-out: Inhibitory Activity (IC50, nM) MAO-B
Structures can show the parent of a compound that is named as a salt.
endpoint: log10(IC50) (log10 of the value in nM)
Field: value | Transform: log10 | Quantity: IC50 | Unit: nM

**Q:** Recorded log10(IC50) for NC/C(=C\F)Cn1ncn(-c2cccc(-c3cccc(-c4noc(C5CC5)n4)c3)n2)c1=O [Example 179, hydrochloride] , please?
**A:** 2.59

**Q:** Query (compound): NC/C(=C\F)Cn1ncn(-c2cccc(-c3ccc4c(c3)NC(=O)CO4)n2)c1=O [Example 199, hydrochloride] ; field requested: log10(IC50)
**A:** 3.28

**Q:** Value lookup for log10(IC50); key = NC/C(=C\F)Cn1ncn(-c2cc(C#Cc3cccnc3)ccn2)c1=O [Example 245, hydrochloride]
**A:** 2.48

**Q:** So what does the record say about log10(IC50) for Cc1cc(-n2cnn(C/C(=C/F)CN)c2=O)ncc1-c1ccc(-c2nc[nH]n2)cc1 [Example 157] ?
**A:** 3.58

**Q:** // lookup log10(IC50) for CC(=O)Nc1cc(-c2cnc(-n3cnn(C/C(=C/F)CN)c3=O)cn2)ccn1 [Example 220]
**A:** 2.60

**Q:** Consider the compound NC/C(=C\F)Cn1ncn(-c2ccnc(-c3ccc(N4CCOCC4)cc3)c2)c1=O [Example 207, hydrochloride] and give its measured log10(IC50).
**A:** 3.15

**Q:** Which log10(IC50) is listed for NC/C(=C\F)Cn1ncn(-c2cccc(-c3ccc(-c4ccon4)cc3)n2)c1=O [Example 176] ?
**A:** 3.52

**Q:** # query: log10(IC50) of entry Cc1cc(-c2cccc(-n3cnn(C/C(=C/F)CN)c3=O)n2)cnc1F [Example 190, hydrochloride]
**A:** 2.28

**Q:** Reported log10(IC50), compound NC/C(=C\F)Cn1ncn(-c2cccc(C#Cc3ccc(N4CCOCC4)nc3)n2)c1=O [Example 249] : ____
**A:** 3.30

**Q:** Please look up its log10(IC50): CC(=O)Nc1cc(-c2ccnc(-n3cnn(C/C(=C/F)CN)c3=O)c2)ccn1 [Example 168]
**A:** 2.20

**Q:** Can you look up the measured log10(IC50) of NC/C(=C/F)Cn1ncn(-c2ncc(-c3ccc4nonc4c3)s2)c1=O [Example 234, hydrochloride] for me?
**A:** 1.00

**Q:** // log10(IC50) lookup, key: NC/C(=C\F)Cn1ncn(-c2cccc(C#Cc3cnc4c(c3)NC(=O)CO4)n2)c1=O [Example 258]
**A:** 4.77

**Q:** Could you tell me which log10(IC50) is on file for Cc1cc(-c2ccc3c(c2)NC(=O)CO3)cnc1-n1cnn(C/C(=C/F)CN)c1=O [Example 155, hydrochloride] ?
**A:** 3.64

**Q:** Value lookup for log10(IC50); key = Cc1cc(-c2ccc3cn[nH]c3c2)cnc1-n1cnn(C/C(=C/F)CN)c1=O [Example 153]
**A:** 2.85

**Q:** Which value of log10(IC50) has been reported for NC/C(=C\F)Cn1ncn(-c2cc(C#Cc3ccccn3)ccn2)c1=O [Example 244, hydrochloride] in the records?
**A:** 2.00

**Q:** May I ask what log10(IC50) has been recorded for CC(C)c1nc(-c2ccc(-c3cc(-n4cnn(C/C(=C/F)CN)c4=O)ccn3)cc2)no1 [Example 205, hydrochloride] ?
**A:** 2.38

**Q:** Please look up its log10(IC50): NC/C(=C\F)Cn1ncn(-c2cccc(-c3ccc4nonc4c3)n2)c1=O [Example 195]
**A:** 2.79

**Q:** # query: log10(IC50) of entry NC/C(=C\F)Cn1ncn(-c2cccc(-c3ccc(-c4cnon4)cc3)n2)c1=O [Example 177, hydrochloride]
**A:** 3.28

**Q:** Fill in the blank: the reported log10(IC50) of CN(C)c1cccc(-c2cccc(-n3cnn(C/C(=C/F)CN)c3=O)n2)c1 [Example 174, hydrochloride] is ____.
**A:** 2.85

----------
# measured_target: recombinant human MAO-A (monoamine oxidase-A) (Homo sapiens)
# Construct: purchased Sigma-Aldrich
# Sequence (P21397 whole entry): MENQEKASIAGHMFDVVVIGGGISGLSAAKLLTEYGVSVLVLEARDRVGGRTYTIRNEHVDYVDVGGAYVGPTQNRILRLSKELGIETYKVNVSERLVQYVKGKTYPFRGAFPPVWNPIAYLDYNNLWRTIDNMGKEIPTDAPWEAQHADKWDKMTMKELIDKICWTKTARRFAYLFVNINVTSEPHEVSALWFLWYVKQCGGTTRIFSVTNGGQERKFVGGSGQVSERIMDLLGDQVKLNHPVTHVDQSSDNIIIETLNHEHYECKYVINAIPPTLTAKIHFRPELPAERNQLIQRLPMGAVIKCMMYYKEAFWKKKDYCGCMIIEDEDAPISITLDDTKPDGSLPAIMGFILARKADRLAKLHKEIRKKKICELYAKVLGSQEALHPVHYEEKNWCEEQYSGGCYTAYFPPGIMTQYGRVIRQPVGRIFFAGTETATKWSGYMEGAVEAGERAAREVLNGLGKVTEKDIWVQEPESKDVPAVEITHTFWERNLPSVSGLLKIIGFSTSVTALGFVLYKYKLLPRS
# assay_remarks: Activity on recombinant human MAO-A, Amplex Red method, 0.5 mM tyramine substrate
# Type: biochemical
# measurement_setup: 0.5 mM tyramine substrate, read-out: Inhibitory Activity (IC50, nM) MAO-A
Structures can show the parent of a compound that is named as a salt.
Please respond with reported IC50 for every item in the list.

**Q:** Look up IC50 for this compound: NC/C(=C\F)Cn1ncn(-c2ccnc(-c3ccc(C(=O)N4CCOCC4)cc3)c2)c1=O [Example 208, hydrochloride]
**A:** > 100000 nM

**Q:** What value of IC50 has been recorded for this entry: NC/C(=C\F)Cn1ncn(-c2cccc(-c3cccc4[nH]c(=O)ccc34)n2)c1=O [Example 201, hydrochloride]
**A:** > 100000 nM

**Q:** Tell me the measured IC50 of NC/C(=C\F)Cn1ncn(-c2cc(-c3ccc4c(c3)OCCO4)ccn2)c1=O , please.
**A:** > 100000 nM

**Q:** # input compound: NC/C(=C\F)Cn1ncn(-c2cccc(/C=C/c3ccsc3)n2)c1=O ; wanted: its IC50
**A:** 20000 nM

**Q:** # query: IC50 of entry COc1ccc(-c2ccc(C)c(-n3cnn(C/C(=C/F)CN)c3=O)n2)cn1 [Example 212, hydrochloride]
**A:** > 100000 nM

**Q:** Field request: IC50 | item: NC/C(=C\F)Cn1ncn(-c2cc(-c3ccc4sc(N)nc4c3)ccn2)c1=O
**A:** > 100000 nM

**Q:** Entry CS(=O)(=O)c1ccc(-c2cnc(-n3cnn(C/C(=C\F)CN)c3=O)s2)cc1 [Example 226, hydrochloride] : reported IC50 = ?
**A:** > 100000 nM

**Q:** Requested field: IC50. Item: CC(=O)Nc1nc(Cc2ccc(-n3cnn(C/C(=C/F)CN)c3=O)cc2)cs1 [Example 235, hydrochloride]
**A:** > 100000 nM

**Q:** Value lookup for IC50; key = NC/C(=C\F)Cn1ncn(-c2cccc(C#Cc3cccnc3)c2)c1=O [Example 243, hydrochloride]
**A:** > 100000 nM

**Q:** Which IC50 is listed for NC/C(=C\F)Cn1ncn(-c2cccc(-c3ccc4sc(N)nc4c3)n2)c1=O ?
**A:** > 100000 nM

**Q:** Sample NC/C(=C\F)Cn1ncn(-c2cccc(-c3ccc(-c4cnon4)cc3)n2)c1=O [Example 177, hydrochloride] — what was its IC50?
**A:** > 100000 nM

**Q:** Which IC50 value is on record for Cc1cc(-n2cnn(C/C(=C/F)CN)c2=O)ncc1-c1cccc(-c2nc[nH]n2)c1 ?
**A:** 9600 nM

**Q:** Any idea what IC50 was measured for Cc1ccc(-c2ccc3cn[nH]c3c2)nc1-n1cnn(C/C(=C/F)CN)c1=O [Example 214, hydrochloride] ?
**A:** > 100000 nM

**Q:** Any idea what its IC50 is? The compound is NC/C(=C\F)Cn1ncn(-c2cccc(-c3cccc(-c4noc(C5CC5)n4)c3)n2)c1=O [Example 179, hydrochloride]
**A:** 270000 nM

**Q:** Give the measured IC50 of NC/C(=C\F)Cn1ncn(-c2cccc(-c3ccc(N4CCNCC4)cc3)n2)c1=O [Example 184, hydrochloride] .
**A:** 14000 nM

----------
What IC50 was measured for each of the following?
# measured_target: recombinant human MAO-B (monoamine oxidase-B) (Homo sapiens)
# Construct: purchased Sigma-Aldrich
# assay_remarks: Activity on recombinant human MAO-B, Amplex Red method, 1 mM benzylamine substrate
# Format: biochemical
# measurement_setup: 1 mM benzylamine, read-out: Inhibitory Activity (IC50, nM) MAO-B
Counter-ions that a name gives are not always drawn.
Just the number in nM, nothing appended.

**Q:** State the recorded IC50 for this entry: Cc1cc(-c2ccc(-c3cnon3)cc2)cnc1-n1cnn(C/C(=C/F)CN)c1=O [Example 138, hydrochloride]
**A:** 1100

**Q:** Quick one: IC50 for NC/C(=C\F)Cn1ncn(-c2cccc(-c3cccnc3)c2)c1=O [Example 82, hydrochloride] ?
**A:** 18000

**Q:** Field request: IC50 | item: NC/C(=C\F)Cn1ncn(-c2cc(F)c(Br)cc2F)c1=O [Example 23, hydrochloride]
**A:** 142

**Q:** Which IC50 reading was recorded for the compound NC/C(=C\F)Cn1ncn(-c2cccc(-c3ccc(C(F)(F)F)nc3)c2)c1=O [Example 84, hydrochloride] ?
**A:** 3000
